# Test system: SK-OV-3 ovarian
# assay name: NCI-60 one-dose screen, 48 h (100 = growth as untreated, 0 = no growth, -100 = all killed)
# condition notes: 10 µM unless noted
This is part of a sample that, as a whole, favours compounds with a hit. Of some 83,000 tested, about 20% had one in any assay.
recorded metric: growth (%)
Your answer is read as %, so omit the unit and give the number.

The cases that follow already have their growth on record.
>>> val("CCCCCc1ccc(S(=O)(=O)Nc2cc(-c3csc(NC(=O)CN4CCN(C)CC4)n3)ccc2N2CCN(C)CC2)cc1")
18.2
>>> val("COc1cc(-c2nnc(SCc3ccc(O)c4ncccc34)n2-c2ccccc2)cc(OC)c1OC")
1.71
>>> val("CC1(C)[C@@H](O)CC[C@]2(C)[C@H]3CC[C@@H]4[C@H]5[C@H](C(=O)/C=C\\c6ccccn6)CC[C@]5(O)CC[C@@]4(C)[C@]3(C)CC[C@@H]12")
89.8
>>> val("O=C1Nc2ccccc2/C1=C/c1ccc(CO)n1-c1ccc(Cl)cc1")
80
>>> val("CCOC(=O)c1c(NC(=O)c2ccccc2C(F)(F)F)sc2c1CCC(=O)C2")
99.7

// fetch growth given entry CCNC(=O)N1CCc2cc(OC)c(OCCc3ccc(OC)c(N)c3)cc2C1c1cc(C)c(C)cc1C (stereo not given) 61.4

// fetch growth given entry `NS(=O)(=O)c1ccc(Nc2nc(N/N=C/c3c[nH]c4ccccc34)nc(Nc3ccccc3)n2)cc1` 90.8

// fetch growth given entry `CCOc1cccc(-c2nc3sccn3c2-c2ccnc(S(C)(=O)=O)n2)c1` 112

// fetch growth given entry `Cn1cc(CNc2nc3ccc(OC/C(=C/F)CN)cc3o2)ccc1=O` 109

// fetch growth given entry `COc1ccc(-c2cc(-c3ccc(Cl)cc3)c(C#N)c(=O)n2Cc2ccc(C(=O)O)cc2)cc1` 114

// fetch growth given entry `O=C1CCCc2nc(Nc3ccc(S(=O)(=O)Nc4ccc([N+](=O)[O-])cc4)cc3)ncc21` 109

// fetch growth given entry `Nc1cc(F)ccc1NC(=O)c1ccc(NC(=O)C/C=C/c2cccnc2)cc1` 54.5

// fetch growth given entry `C#C[C@]1(O)CC[C@H]2[C@@H]3CC=C4c5sc(-c6ccc7c(c6)OCO7)nc5CC[C@]4(C)[C@H]3CC[C@@]21C` 52.3

// fetch growth given entry `Cc1ccc(S(=O)(=O)NCCNc2nc(Nc3ccc(N4CCN(C)CC4)cc3)nc3ccsc23)cc1` 129

// fetch growth given entry `CCOC(=O)c1c(Nc2ccccc2)nn2c(-c3ccc(OC)cc3)ccnc12` 101

---

# growth annotations
# Tested on: OVCAR-8 ovarian
# assay name: NCI-60 one-dose screen, 48 h (100 = growth as untreated, 0 = no growth, -100 = all killed)
# condition notes: 10 µM unless noted
Compounds without any hit were thinned out: in the full panel of roughly 83,000, 20% have a hit.
Your answer is read as %, so omit the unit and give the number.

>>> val("O=c1[nH]c2ccccc2cc1CSc1ccccc1Nc1nccc(-c2ccc(Cl)cc2)n1")
96.9

With OVCAR-8 ovarian as the test system, provide measured growth for this compound: `CCN1CCN(C(=O)[C@]23CCC(C)(C)C[C@H]2C2=CC[C@@H]4[C@@]5(C)Cc6c([nH]c7ccccc67)C(C)(C)[C@@H]5CC[C@@]4(C)[C@]2(C)CC3)CC1` 91.8

With OVCAR-8 ovarian as the test system, provide measured growth for this compound: CCc1ccc(SC2c3ccc(N(CC)CC)cc3Oc3nc(N)c(C#N)c(N)c32)cc1 (stereo not drawn) 5.08

---

# Test system: SK-MEL-2 melanoma
# assay name: NCI-60 one-dose screen, 48 h (100 = growth as untreated, 0 = no growth, -100 = all killed)
# condition notes: 10 µM unless noted
The panel holds about 83,000 compounds, 20% with a hit somewhere; the sample as a whole holds those more often.
recorded metric: growth (%)
Your answer is read as %, so omit the unit and give the number.

The cases that follow already have their growth on record.
>>> val("Fc1ccc(-c2cc3nc(C(Cl)Cl)nc(-c4ccc(F)cc4)n3n2)cc1")
108
>>> val("COc1cc2c(cc1OC)C(Sc1ccc(F)cc1)c1c(nc(N)c(C#N)c1N)O2 (stereo not given)")
-6.24
>>> val("Nc1cc(-c2c[nH]c3ccc(Br)cc23)nc2cc(-c3c[nH]c4ccc(Br)cc34)nn12")
-43.7
>>> val("CCn1c2ccccc2c2cc(-n3nncc3-c3ccccc3)ccc21")
68.2

// fetch growth given entry `NC(N)=Nc1ccc(Oc2cccc(NC(N)=Nc3ccc(Cl)c(C(F)(F)F)c3)c2)cc1` 83

---

# System: SK-MEL-5 melanoma
# assay name: NCI-60 one-dose screen, 48 h
# condition notes: 10 µM unless noted
About 83,000 compounds went through this panel and 20% of them were active in at least one assay; those are over-represented in the sample as a whole. Calls of active or inactive are those of the source. Rule for the calls: active = growth percent below 10; inactive = the rest.
Respond only with the outcome that fits, drawn from class 1 = active, class 0 = inactive

>>> label("CCCCCc1ccc(S(=O)(=O)Nc2cccc(-c3csc(NCCN4CCN(C)CC4)n3)c2)cc1")
"class 1"
>>> label("CN(C)C(=O)c1cc(-c2ccc3ncnc(NCc4ccccc4)c3c2)cnc1N")
"class 0"
>>> label("Cc1noc(C)c1CSc1nc2ccccc2n1-c1ccccc1")
"class 0"

Record request — test call for C#CC(=O)N(c1ccc(OC)cc1OC)C(C(=O)NCC(=O)OCC)c1cccs1 (stereo not given) class 0

Record request — test call for `CN1CCN(c2ccc(/C=N/n3cnc4oc(-c5ccccc5)cc4c3=N)cc2)CC1` class 0

Record request — test call for `Cc1ccc(C2=Nn3c(nnc3-c3ccccc3)SC2)cc1` class 0

Record request — test call for `CC[C@H](CO)Nc1ccc2ncc(C#Cc3cncc(C(=O)Nc4ccc(CN5CCN(C)CC5)c(C(F)(F)F)c4)c3)n2n1` class 1

Record request — test call for `O=C(c1ccc(O)cc1)[C@@H]1CN[C@@]2(C(=O)Nc3ccccc32)[C@H]1c1ccc(F)cc1` class 0

---

# System: T-47D breast
# assay name: NCI-60 one-dose screen, 48 h (100 = growth as untreated, 0 = no growth, -100 = all killed)
# condition notes: 10 µM unless noted
About 83,000 compounds went through this panel and 20% of them were active in at least one assay; those are over-represented in the sample as a whole.
recorded metric: growth (%)
Your answer is read as %, so omit the unit and give the number.

The cases that follow already have their growth on record.
>>> val("CC[C@H](CO)Nc1ccc2ncc(C#Cc3cncc(C(=O)Nc4ccc(CN5CCN(C)CC5)c(C(F)(F)F)c4)c3)n2n1")
-69.5
>>> val("COc1ccccc1C(=O)Nc1cccc2c1C(=O)C(=O)C=C2")
98.8
>>> val("CCNC(=O)N1CCc2cc(OC)c(OCCc3ccc(OC)nc3)cc2C1c1ccc(OC)cc1C (stereo not drawn)")
49
>>> val("Nc1ncc(-c2ccc3ncnc(Nc4cccc(Cl)c4F)c3c2)cn1")
23.8
>>> val("c1ccc(C(c2nc3ncncc3[nH]2)N2CSc3nc4ncncc4n3C2)cc1 (stereo not drawn)")
34.4
>>> val("COC(=O)c1ccc(NC2=C/C(=N/S(=O)(=O)c3ccc(C(=O)O)cc3)c3ccccc3C2=O)cc1")
4.9

// fetch growth given entry `Cc1ccc(NC(=O)CNc2cc(C(N)=O)cc(F)c2C)c(Cl)c1` 104

// fetch growth given entry `NC(N)=Nc1ccc(Oc2ccc(Nc3ccc(Cl)c(C(F)(F)F)c3)cc2)cc1` 41.1

---

# growth annotations
# Tested on: EKVX NSCLC
# assay name: NCI-60 one-dose screen, 48 h (100 = growth as untreated, 0 = no growth, -100 = all killed)
# condition notes: 10 µM unless noted
This is part of a sample that, as a whole, favours compounds with a hit. Of some 83,000 tested, about 20% had one in any assay.
Your answer is read as %, so omit the unit and give the number.

The cases that follow already have their growth on record.
>>> val("COc1ccccc1-n1cc(C#N)c(N)c1C(=O)c1ccc(Cl)cc1")
86.9
>>> val("COc1ccc(/C=C/C(=O)c2cc(S(N)(=O)=O)c(OC)cc2OC)cc1")
92.1
>>> val("COCCNc1ccc2ncc(C#Cc3cncc(C(=O)Nc4ccc(CN5CCN(C)CC5)c(C(F)(F)F)c4)c3)n2n1")
-23.2
>>> val("NC(=O)c1c(NC(=O)c2ccccc2C(F)(F)F)sc2c1CCC(=O)C2")
24.3

// fetch growth given entry CCNC(=O)N1CCc2cc(OC)c(OCCc3ccc(OC)c(N)c3)cc2C1c1cc(C)c(C)cc1C (stereo not given) 58.3

---

# System: HCC-2998 colon
# assay name: NCI-60 one-dose screen, 48 h (100 = growth as untreated, 0 = no growth, -100 = all killed)
# condition notes: 10 µM unless noted
Compounds without any hit were thinned out: in the full panel of roughly 83,000, 20% have a hit.
# growth annotations
Your answer is read as %, so omit the unit and give the number.

The cases that follow already have their growth on record.
>>> val("O=C(/C=C/c1ccc(F)cc1)c1ccc(O)cc1")
112
>>> val("COc1cc(OC)c(/C=C/S(=O)(=O)Cc2ccc(OC)c(NCC(=O)NO)c2)c(OC)c1")
14.2
>>> val("O=S(=O)(NCCNc1nccc(-n2cnc3ccccc32)n1)c1ccc(C(F)(F)F)cc1")
80.5
>>> val("CS(=O)(=O)c1ccc(-c2nn(-c3ccccc3)cc2/C=N/NC(=O)c2nc(N)n[nH]2)cc1")
117
>>> val("CCNC(=O)N1CCc2cc(OC)c(OCCc3ccc(OC)nc3)cc2C1c1ccc(OC)cc1C (centres undefined)")
42.8
>>> val("NC(=O)c1c(NC(=O)c2ccccc2C(F)(F)F)sc2c1CCC(=O)C2")
33.3

// fetch growth given entry `COc1cccc(O)c1/C=C(/C)c1ccc2c(OC)cccc2[o+]1` 110

// fetch growth given entry `COc1ccc(-n2c(/C=C3\C(=O)Nc4ccccc43)ccc2CO)cc1` 113

// fetch growth given entry O=C1CCC(N2C(=O)c3ccc(NS(=O)(=O)c4ccccc4OC(F)(F)F)cc3C2=O)C(=O)N1 (centres undefined) 11
